Please respond with reported growth for every item in the list.
- Test system: UACC-257 melanoma
- assay.notes: NCI-60 one-dose screen, 48 h (100 = growth as untreated, 0 = no growth, -100 = all killed)
- measurement.parameters: 10 µM unless noted
About 83,000 compounds went through this panel and 20% of them were active in at least one assay; those are over-represented in the sample as a whole.
Give the value in % but do not write % after it.

Request: growth of CNC(=O)c1[nH]cc(-c2ccccc2)c1-c1cc(OC)c2c(c1OC)OCO2 on UACC-257 melanoma?
Response: 101

Request: growth of CCCCn1c(-c2ccc(-c3nc(-c4ccc(Cl)cc4)no3)cc2)nc(-c2ccccc2)c1-c1ccccc1 on UACC-257 melanoma?
Response: 97.8

Request: growth of O=C(CCOCCNC(=O)COc1ccc2c(c1)OCC(c1ccc(F)cc1)C2=O)NCCCC(O)(P(=O)(O)O)P(=O)(O)O (stereo unspecified) on UACC-257 melanoma?
Response: 112

Request: growth of CC(=O)OC[C@H]1OC(Sc2sc(C(=O)c3ccc(Cl)cc3)c(N)c2-c2nc3ccccc3s2)[C@H](OC(C)=O)[C@@H](OC(C)=O)[C@@H]1OC(C)=O (stereo partly specified) on UACC-257 melanoma?
Response: 96.6

Request: growth of CS(=O)(=O)Nc1cc(-c2ccc3ncnc(Nc4cccc(Cl)c4F)c3c2)cnc1Cl on UACC-257 melanoma?
Response: 40.1

Request: growth of COc1ccc(C2NC(=O)C(C#N)c3c2sc2c(F)cccc32)c(OC)c1 (stereo unspecified) on UACC-257 melanoma?
Response: 68.3
